// reported TGI for each item listed
test system: 786-0 renal; test: NCI tumour cell line growth inhibition, 48 h

Reference set (8 entries):
Compound	Tested system	Recorded endpoint	Endpoint result
O=C(CC1(O)C(=O)Nc2ccccc21)c1ccc2ccccc2c1 (stereo not given)	786-0 renal	TGI	> 100 µM
CCN(CC)CC1CCCCN1CC(=O)N1c2ccccc2NC(=O)c2ccccc21 (stereo not given)	786-0 renal	TGI	> 100 µM
OCn1nc2c(C3OCCO3)cc3ccccc3n2c1=S	786-0 renal	TGI	> 100 µM
C=CCNC(=S)/N=C\C(C(=O)OCC)=C(/O)C(=O)OCC	786-0 renal	TGI	> 100 µM
O=C(O)C1CCC(=O)N1C(=O)C(Cl)c1ccccc1 (stereo not given)	786-0 renal	TGI	> 100 µM
C=Cc1c(C)c(O)cc2c1-c1ccc(O)c(C)c1CC2	786-0 renal	TGI	34 µM
O=[N+]([O-])c1cccc2nc3ccccc3c(NCCN(CCO)CCO)c12	786-0 renal	TGI	0.0296 µM
CC1(C)CC[C@]2(C(=O)O)CC[C@]3(C)C(=CC[C@@H]4[C@@]5(C)CC[C@H](OC6OC(C(=O)O)C(O)C(O)C6O)C(C)(C)[C@@H]5CC[C@]43C)[C@@H]2C1 (stereo not given in full)	786-0 renal	TGI	33.6 µM

## Input Entry Cc1ccc(C2C3Cc4ccccc4C3=NN2c2ccc(S(=O)(=O)NC(=O)NC3CCCCC3)cc2)cc1 (stereo not given) has what TGI?
## Output > 100 µM

## Input Entry `c1ccc2nc(-c3ccc4c(c3)OCO4)ccc2c1` has what TGI?
## Output > 100 µM

---

test system: PC-3 prostate; experiment: NCI tumour cell line growth inhibition, 48 h
Recorded endpoint: TGI

Reference set (4 entries):
Compound	Tested system	Endpoint result
O=C(Nc1sccc1S(=O)(=O)c1ccc(Cl)cc1)c1ccc(Cl)cc1	PC-3 prostate	90.4 µM
O=C(NC1CCCCC1)OCc1c(COC(=O)NC2CCCCC2)c(-c2ccc(Cl)c(Cl)c2)n2c1CCC2	PC-3 prostate	29.3 µM
Cc1ccc(C(=O)CC(O)(C(F)(F)F)C(F)(F)F)cc1[N+](=O)[O-]	PC-3 prostate	27.2 µM
NC(=S)C1=C(N)Oc2c(c(=O)oc3ccccc23)C1c1ccc(Br)cc1 (stereo not drawn)	PC-3 prostate	> 100 µM

## Input Entry `C=C(C)c1nc(C#N)c(N)o1` has what TGI?
## Output > 100 µM

## Input Entry `COC(=O)/C=C/CC(=O)NS(C)(=O)=O` has what TGI?
## Output > 10 µM

## Input Entry `Cn1c(=O)c2[nH]c(CSCc3ccccc3)nc2n(C)c1=O` has what TGI?
## Output > 100 µM

---

// reported TGI for each item listed
test system: BT-549 breast; assay: NCI tumour cell line growth inhibition, 48 h

Reference set (2 entries):
Compound	Endpoint result
O=C1CSC(c2cccc(Cl)c2)N1c1ccc(-n2c(-c3ccccc3)nc3ccccc3c2=O)cc1 (stereo not drawn)	> 100 µM
COc1ccc(/C=C/C(=O)c2ccc(Cl)cc2Cl)cc1	36.8 µM

Continue with the next compound.
## Input Entry `Nc1nc(N)c2ncn(-c3ccc(Br)cc3)c2n1` has what TGI?
## Output > 100 µM

---

test system: HT29 colon; test: NCI tumour cell line growth inhibition, 48 h
Where a SMILES comes first, the peptide text is derived from it. [ ]: non-standard residue; d: D form. The star is where a group is joined. ξ: configuration not given here. ξD = NC(CC(=O)O)C(=O)O; Boc = CC(C)(C)OC(=O)*; Aib = CC(C)(N)C(=O)O; OtBu = CC(C)(C)O*
Recorded endpoint: TGI

Reference set (3 entries):
Compound	TGI
CCC1=C(CC)C1(C#N)[N+](=O)[O-]	> 100 µM
CN(C)CCCNC(=O)c1cccc2ccccc12	> 100 µM
CC1CCC2(OC1)OC1CC3C4CCC5CC(O)CCC5(C)C4CC(=O)OC3(C)C1C2C (stereo unspecified)	> 100 µM

## Input Notebook entry, HT29 colon assay: TGI of `COC(=O)c1c(C)c2n(c1C)C(=O)C(c1ccccc1)=C2` = ?
## Output > 100 µM

## Input Notebook entry, HT29 colon assay: TGI of `Cn1c(=O)nc2n(-c3cccc(Cl)c3)c3ccccc3nc-2c1=O` = ?
## Output 21.4 µM

## Input Notebook entry, HT29 colon assay: TGI of `CCc1cccc(C)c1NC(=O)CCc1n[nH]c(=S)o1` = ?
## Output > 100 µM

## Input Notebook entry, HT29 colon assay: TGI of COc1ccc(OC)c2c1C=C[C@H](C1(C)SCCS1)C2C(C)=O (stereo partly specified) = ?
## Output 33.8 µM

## Input Notebook entry, HT29 colon assay: TGI of COC(=O)C(C)(C)NC(=O)C(C)(C)NC(=O)C(CC(=O)OC(C)(C)C)NC(=O)OC(C)(C)C (stereo unspecified) (Boc-[ξD](OtBu)-[Aib]-[Aib]-OMe) = ?
## Output > 100 µM

## Input Notebook entry, HT29 colon assay: TGI of `Cc1ccc(NCCN(C)C)c2c(=O)c3cc(O)ccc3oc12` = ?
## Output 23.7 µM

## Input Notebook entry, HT29 colon assay: TGI of `S=c1oc(CCCCCCCCc2nn(CNc3ccccc3)c(=S)o2)nn1CNc1ccccc1` = ?
## Output > 100 µM

## Input Notebook entry, HT29 colon assay: TGI of `C=CC1(c2ccc(-c3ccccc3)cc2)OCCO1` = ?
## Output 81.2 µM

## Input Notebook entry, HT29 colon assay: TGI of `Nc1cc(N)c2nc(-c3ccccc3)c(NCCc3ccc(Cl)c(Cl)c3)nc2c1` = ?
## Output 13.2 µM

## Input Notebook entry, HT29 colon assay: TGI of `Cn1c(=O)c2[nH]c(CSCc3ccccc3)nc2n(C)c1=O` = ?
## Output > 100 µM

Reference source for all entries: PubChem BioAssay (NCI)
